- assay.system: aromatase (CYP19A1) (Homo sapiens, UniProt P11511)
- Construct: host or cells: JEG-3 cells
- Sequence (P11511 1-503): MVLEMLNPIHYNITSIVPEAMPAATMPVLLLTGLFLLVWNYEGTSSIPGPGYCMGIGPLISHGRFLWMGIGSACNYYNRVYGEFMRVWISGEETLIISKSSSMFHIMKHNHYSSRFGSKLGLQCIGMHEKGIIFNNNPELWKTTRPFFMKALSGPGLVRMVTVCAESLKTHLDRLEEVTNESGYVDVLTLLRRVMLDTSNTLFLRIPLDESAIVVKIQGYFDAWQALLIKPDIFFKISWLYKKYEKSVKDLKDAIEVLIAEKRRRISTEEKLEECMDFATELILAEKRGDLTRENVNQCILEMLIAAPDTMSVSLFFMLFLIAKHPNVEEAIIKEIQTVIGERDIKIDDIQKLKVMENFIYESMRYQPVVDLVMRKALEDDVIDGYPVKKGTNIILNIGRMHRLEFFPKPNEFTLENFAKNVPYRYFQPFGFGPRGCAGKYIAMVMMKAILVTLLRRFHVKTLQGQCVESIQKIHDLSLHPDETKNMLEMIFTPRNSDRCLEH
- experiment.description: Aromatase activity assay, modified tritiated water assay in JEG-3 cells
- Assay type: cell-based
- condition.context: JEG-3 cells, 1 h incubation, triplicate; read-out: Arom IC50
Consider the following compounds and their measured log10(IC50) readings.
assay.readout: log10(IC50) (log10 of the value in nM)

compound	readout.value
Cc1c(C(=O)c2ccc(Cl)cc2)oc2cc(OS(N)(=O)=O)ccc12 [19b]	2.14
COc1ccc(C(=O)c2oc3cc(OS(N)(=O)=O)ccc3c2C)cc1 [19e]	1.54
NS(=O)(=O)Oc1ccc2cc(C(c3ccc(F)cc3)n3cncn3)oc2c1 (centres unmarked)	0.92
NS(=O)(=O)Oc1ccc2cc(C(c3ccc(Cl)cc3)n3cncn3)oc2c1 (centres unmarked)	0.15
Cc1c(C(=O)c2ccc(Br)cc2)oc2cc(OS(N)(=O)=O)ccc12 [19c]	1.34
NS(=O)(=O)Oc1ccc2oc(C(c3ccc(Cl)cc3)n3cncn3)cc2c1 (centres unmarked)	0.74

###

- assay.system: steroid sulfatase (STS) (Homo sapiens, UniProt P08842)
- Construct: lysates from JEG-3 cells, known to have high endogenous STS activity
- Sequence (P08842 22-583): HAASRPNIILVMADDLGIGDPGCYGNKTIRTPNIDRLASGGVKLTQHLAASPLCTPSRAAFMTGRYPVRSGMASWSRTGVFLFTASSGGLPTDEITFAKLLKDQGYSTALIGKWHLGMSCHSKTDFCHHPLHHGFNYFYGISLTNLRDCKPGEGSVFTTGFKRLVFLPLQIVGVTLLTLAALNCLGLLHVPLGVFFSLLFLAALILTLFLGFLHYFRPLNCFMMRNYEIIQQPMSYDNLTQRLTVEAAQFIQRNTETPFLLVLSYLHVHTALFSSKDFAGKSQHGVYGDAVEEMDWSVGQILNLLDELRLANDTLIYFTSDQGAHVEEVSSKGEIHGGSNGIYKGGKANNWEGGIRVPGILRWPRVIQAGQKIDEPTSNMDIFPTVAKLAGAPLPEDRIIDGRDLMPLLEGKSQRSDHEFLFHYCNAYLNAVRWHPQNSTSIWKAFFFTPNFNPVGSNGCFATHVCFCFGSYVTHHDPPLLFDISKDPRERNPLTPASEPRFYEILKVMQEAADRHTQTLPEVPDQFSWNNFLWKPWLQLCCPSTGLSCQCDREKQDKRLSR
- experiment.description: Steroid sulfatase activity assay, cell-free JEG-3 lysate, [3H]oestrone sulfate substrate
- condition.context: 20 μM E1S, 37 °C, 1 h, triplicate
pIC50: −log10 of the molar value.
// reported pIC50 per item
assay.readout: pIC50

compound	result.operator	readout.value
NS(=O)(=O)Oc1ccc2cc(C(=O)c3ccc(F)cc3)oc2c1 [18a]	=	6.13
Cc1c(C(=O)c2ccc(Cl)cc2)oc2cc(OS(N)(=O)=O)ccc12 [19b]	=	7.32
N#Cc1ccc(C(=O)c2cc3ccc(OS(N)(=O)=O)cc3o2)cc1 [18f]	=	6.55
N#Cc1ccc(C(c2ccc(C#N)cc2)n2cncn2)cc1 [Letrozole, reference compound]	<	6.00
Cc1c(C(=O)c2ccc(F)cc2)oc2cc(OS(N)(=O)=O)ccc12 [19a]	=	6.18
COc1ccc(C(=O)c2cc3ccc(OS(N)(=O)=O)cc3o2)cc1 [18e]	=	6.94
NS(=O)(=O)Oc1ccc2cc(C(=O)c3ccc(Cl)cc3)oc2c1 [18b]	=	6.39
Cc1c(C(=O)c2ccc(Br)cc2)oc2cc(OS(N)(=O)=O)ccc12 [19c]	=	6.08
COc1ccc(C(=O)c2oc3cc(OS(N)(=O)=O)ccc3c2C)cc1 [19e]	=	6.79
NS(=O)(=O)Oc1ccc2cc(C(=O)c3ccc(Cl)cc3Cl)oc2c1 [18d]	=	6.51
Cc1c(C(=O)c2ccc(Cl)cc2Cl)oc2cc(OS(N)(=O)=O)ccc12 [19d]	=	5.82
NS(=O)(=O)Oc1ccc2cc(C(=O)c3ccc(Br)cc3)oc2c1 [18c]	=	6.29
